Entries annotated with measured Barnyardgrass plant response rating
System: barnyardgrass
experiment description: Test B flooded paddy test
Format: in vivo, Echinochloa crus-galli
details: 1000 g ai/ha, visual rating, scale 0 to 100 (0 no effect, 100 complete control), 13 to 15 days
measured quantity: Barnyardgrass plant response rating

>>> observed_measurement("CCc1nc(C(C)(C)C)sc1C(=O)Nc1cccc(C(=O)NCCF)c1")
60
>>> observed_measurement("C=Cn1nc(C(C)(C)C)cc1C(=O)Nc1cccc(C(=O)N(CC)CC)c1")
80
>>> observed_measurement("CCn1nc(C(C)(C)C)cc1C(=O)Nc1cccc(C(=O)N(C)C)c1")
70
>>> observed_measurement("CN1Cc2c(NC(=O)c3cc(C(C)(C)C)nn3C)cccc2C1=O")
0
>>> observed_measurement("CCN(CC)C(=O)c1ccnc(NC(=O)c2cc(C(C)(C)C)nn2CC)c1")
40
>>> observed_measurement("Cn1nc(C(C)(C)C)cc1C(=O)Nc1cccc(C#N)c1")
0
>>> observed_measurement("CCn1nc(C(C)(C)C)cc1C(=O)Nc1cc(C(=O)OC(C)(C)C)ccc1F")
0
>>> observed_measurement("CCn1nc(C(C)(C)C)cc1C(=O)Nc1cccc(C(=O)NC(C)C)c1")
90
>>> observed_measurement("CCn1nc(C(C)(C)C)cc1C(=O)Nc1cc(C(=O)NC(C)(C)C)ccn1")
50
>>> observed_measurement("CCn1nc(C(C)(C)C)cc1C(=O)Nc1cccc(C(=O)NCCF)c1")
80
>>> observed_measurement("CCNC(=O)c1ccc(F)c(NC(=O)c2cn(C(C)(C)C)nc2CC)c1")
80

###

Tested on: pigweed
experiment description: Test B pre-/postemergence herbicide test
Format: in vivo, Amaranthus retroflexus
details: postemergence, 125 g ai/ha; visual rating, scale 0 (no effect) to 100 (complete control)
measured quantity: Pigweed plant response rating

>>> observed_measurement("CCNC(=O)c1ccc(F)c(NC(=O)C2CC(C(C)(C)C)=NN2CC)c1 (racemic) [Compound 269]")
60
>>> observed_measurement("CCc1nc(C(C)(C)C)sc1C(=O)Nc1cccc(C(=O)N(C)CC)c1 [Compound 229]")
60
>>> observed_measurement("CCNC(=O)c1cc(NC(=O)c2cc(C(C)(C)C)nn2CC)ccn1 [Compound 257]")
60
>>> observed_measurement("CCn1nc(C(C)(C)C)cc1C(=O)Nc1cccc(C(=O)NCC(C)C)c1 [Compound 61]")
20
>>> observed_measurement("CCNC(=O)c1ccc(F)c(NC(=O)c2cc(C(C)(C)C)nn2CC)n1 [Compound 278]")
10
>>> observed_measurement("CC(C)(C)c1cc(C(=O)Nc2cccc(SC(F)(F)F)c2)n(CCF)n1 [Compound 132]")
70
>>> observed_measurement("CCOC(=O)c1cccc(NC(=O)c2sc(C(C)(C)C)nc2CC)c1 [Compound 204]")
50
>>> observed_measurement("CCc1nc(C(C)(C)C)sc1C(=O)Nc1cccc(C(=O)N(CC)CC)c1 [Compound 205]")
40
>>> observed_measurement("CC(=NO)c1cccc(NC(=O)c2cc(C(C)(C)C)nn2C)c1 [Compound 107]")
0
>>> observed_measurement("CCn1nc(C(C)(C)C)cc1C(=O)Nc1nc(C(=O)N2CC=CC2)ccc1F [Compound 281]")
20
>>> observed_measurement("CC(=O)c1cccc(NC(=O)c2cc(C(C)(C)C)nn2CCF)c1 [Compound 128]")
20
>>> observed_measurement("CCOC(=O)c1cc(NC(=O)c2cc(C(C)(C)C)nn2CC)ccc1OCC [Compound 95]")
90
>>> observed_measurement("CCn1nc(C(C)(C)C)cc1C(=O)Nc1cncc(C(=O)N2CC=CC2)c1 [Compound 260]")
20
>>> observed_measurement("CCn1nc(C(C)(C)C)cc1C(=O)Nc1ccnc(C(=O)N(C)C)c1 [Compound 256]")
30
>>> observed_measurement("CON=C(C)c1cccc(NC(=O)c2cc(C(C)(C)C)nn2C)c1 [Compound 106]")
10
>>> observed_measurement("CCN(CC)C(=O)c1cccc(NC(=O)c2nn(C(C)(C)C)cc2Cl)c1 [Compound 218]")
0

###

System: redroot pigweed
experiment description: Test A pre-/postemergence herbicide test
Assay type: in vivo, Amaranthus retroflexus
details: Postemergence, 2000 g ai/ha; 0 to 100 scale, 0 no effect, 100 complete control
Entries annotated with measured Plant response rating, Pigweed
measured quantity: Plant response rating, Pigweed

>>> observed_measurement("C=CCNC(=O)c1cccc(NC(=O)c2cc(C(C)(C)C)nn2C)n1")
100
>>> observed_measurement("CCn1nc(C(C)(C)C)cc1C(=O)Nc1cc(C(=O)NC(C)(C)C)ccn1")
100
>>> observed_measurement("CC(=NO)c1cccc(NC(=O)c2cc(C(C)(C)C)nn2C)c1")
100
>>> observed_measurement("CC(=O)c1cccc(NC(=O)c2sc(C(C)(C)C)nc2C)c1")
0
>>> observed_measurement("CCCCOc1cccc(NC(=O)c2cc(C(C)(C)C)nn2CC)c1")
100
>>> observed_measurement("CC(=NO)c1cccc(NC(=O)c2cc(C(F)(F)F)nn2C)c1")
100
>>> observed_measurement("CCn1nc(C(C)(C)C)cc1C(=O)Nc1cccc(C(=O)NCC2CC2)c1")
100
>>> observed_measurement("C#CCNC(=O)c1ccc(F)c(NC(=O)c2cc(C(C)(C)C)nn2CC)n1")
60
>>> observed_measurement("CCOc1cccc(NC(=O)c2cn(C(C)(C)C)nc2C)c1")
20
>>> observed_measurement("C=Cn1nc(C(C)(C)C)cc1C(=O)Nc1cccc(C(=O)N(CC)CC)c1")
90

###

Entries annotated with measured Cocklebur plant response rating
Tested on: cocklebur
experiment description: Test B pre-/postemergence herbicide test
Type: in vivo, Xanthium strumarium
details: 125 g ai/ha; visual rating, scale 0 (no effect) to 100 (complete control); postemergence
measured quantity: Cocklebur plant response rating

>>> observed_measurement("C#CCNC(=O)c1cccc(NC(=O)c2sc(C(C)(C)C)nc2CC)c1")
20
>>> observed_measurement("CCc1nn(C(C)(C)CC)nc1C(=O)Nc1cccc(OC(F)(F)F)c1")
0
>>> observed_measurement("CC(=NO)c1cccc(NC(=O)c2cc(C(C)(C)C)n[nH]2)c1")
0
>>> observed_measurement("CCn1nc(C(C)(C)C)cc1C(=O)Nc1cncc(C(=O)N2CC=CC2)n1")
0
>>> observed_measurement("Cn1nc(C(C)(C)C)cc1C(=O)Nc1cccc(C(=O)NC2CC2)n1")
20
>>> observed_measurement("CCSCNC(=O)c1cccc(NC(=O)c2cc(C(C)(C)C)nn2CC)c1")
0

###

System: redroot pigweed
experiment description: Test A pre-/postemergence herbicide test
Type: in vivo, Amaranthus retroflexus
details: Postemergence, 500 g ai/ha; 0 to 100 scale, 0 no effect, 100 complete control
measured quantity: Pigweed plant response rating

>>> observed_measurement("CCOc1cccc(NC(=O)c2cc(C(C)(C)C)nn2CC)c1 [Compound 136]")
65
>>> observed_measurement("CCn1nc(C(C)(C)C)cc1C(=O)Nc1cc(OC(F)(F)F)ccc1F [Compound 338]")
70
>>> observed_measurement("CCNC(=O)c1cccc(NC(=O)c2nn(C3CCCC3)nc2CC)c1 [Compound 356]")
65
>>> observed_measurement("CC(=O)c1cccc(NC(=O)c2cc(C(C)(C)C)nn2CCF)c1 [Compound 128]")
50
>>> observed_measurement("CC(=NO)c1cccc(NC(=O)c2cc(C(C)(C)C)nn2C)c1 [Compound 107]")
95
>>> observed_measurement("CC(=O)c1cccc(NC(=O)c2sc(C(C)(C)C)nc2C)c1 [Compound 196]")
0

###

Test system: lambsquarters
experiment description: Test C pre-/postemergence herbicide test
Format: in vivo, Chenopodium album
details: Postemergence; 250 g ai/ha; scale 0 to 100, 0 no effect, 100 complete control
Entries annotated with measured Plant response rating, Lambsquarters
measured quantity: Plant response rating, Lambsquarters

>>> observed_measurement("CCc1nc(C(C)(C)C)sc1C(=O)Nc1cccc(C(=O)NCC2CC2)c1 [Compound 212]")
90
>>> observed_measurement("CCNC(=O)c1cccc(NC(=O)c2cc(C(C)(C)C)nn2CC(F)(F)F)c1 [Compound 31]")
90
>>> observed_measurement("CCn1nc(C(C)(C)C)cc1C(=O)Nc1cc(OC(F)(F)F)ccc1F [Compound 338]")
75
>>> observed_measurement("C=CCNC(=O)c1cccc(NC(=O)c2cc(C(C)(C)C)nn2C)n1 [Compound 318]")
100

###

System: pigweed
experiment description: Test B pre-/postemergence herbicide test
Format: in vivo, Amaranthus retroflexus
details: postemergence, 500 g ai/ha; visual rating, scale 0 (no effect) to 100 (complete control)
measured quantity: Pigweed plant response rating

>>> observed_measurement("CCn1nc(C(C)(C)C)cc1C(=O)Nc1cccc(C(C)=O)c1")
10
>>> observed_measurement("CCNC(=O)c1ccc(F)c(NC(=O)c2sc(C(C)(C)C)nc2CC)c1")
60
>>> observed_measurement("CCc1nc(C(C)(C)C)sc1C(=O)Nc1cccc(C(=O)N(CC)CC)n1")
0
>>> observed_measurement("Cn1nc(C(C)(C)C)cc1C(=O)Nc1cccc(C#N)c1")
50
>>> observed_measurement("CC(=O)c1cccc(NC(=O)c2sc(C(C)(C)C)nc2C)c1")
30
>>> observed_measurement("CCc1nc(C(C)(C)C)sc1C(=O)Nc1cccc(C(=O)N(C)CC)c1")
80
>>> observed_measurement("CCn1nc(C(C)(C)C)cc1C(=O)Nc1cccc(OCCCF)c1")
90
>>> observed_measurement("CCOc1cccc(NC(=O)c2cn(C(C)(C)C)nc2C)c1")
70
>>> observed_measurement("CCNC(=O)c1cccc(NC(=O)c2nn(C(C)(C)C)cc2C(F)(F)F)c1")
50
>>> observed_measurement("CC(=NO)c1cccc(NC(=O)c2cn(C(C)C)nc2C)c1")
0
>>> observed_measurement("CCc1nn(C(C)(C)C)cc1C(=O)Nc1cc(C(=O)N(C)CC)ccc1F")
60
